HC50: recorded values
# ASSAY_TEXT: Toxicity against red blood cells assessed as hemolytic activity
# Type: cell-based, Erythrocyte
# SETUP_CONDITIONS: human
All answers are understood in µM, so give the number only.

1) CCCCCCCCCCCCCC=C1CCC(OCCOP(=O)([O-])OCC[N+]2(C)CCOCC2)CC1 (stereo not given) | 58.8
2) C[N+](C)(C)C1CCCC1OP(=O)([O-])OCCCCCCCCCCC=C1CCCCC1 (stereo not given) | 76.3
3) CCCCCCCCCCCCC1CCC(OCCOP(=O)([O-])OCC[N+](C)(C)C)CC1 (stereo not given) | 75.7

Moving on to the next molecule.
So, C[N+](C)(C)CCOP(=O)([O-])OCCCCCCCCCCC=C1CCCCC1 ? Its HC50 was 68.3

====

# ASSAY_TEXT: Toxicity against red blood cells assessed as hemolytic activity
# Format: cell-based, Erythrocyte
# SETUP_CONDITIONS: human
// reported HC50 for each item listed

Reference set (5 entries):
1) C[N+](C)(C)C1CCCC1OP(=O)([O-])OCCCCCCCCCCC=C1C2CC3CC(C2)CC1C3 (centres undefined) | > 100 µM
2) CCCCCCCCCCCCCCCCOP(=O)([O-])OCC[N+](C)(C)C [MILTEFOSINE] | 38.3 µM
3) CCCCCCCCCCCC=C1CCC(OCCOP(=O)([O-])OCC[N+](C)(C)C)CC1 (centres undefined) | 40.6 µM
4) C[N+](C)(C)C1CCCCC1OP(=O)([O-])OCCCCCCCCCCC=C1C2CC3CC(C2)CC1C3 (centres undefined) | 66.6 µM
5) C[N+](C)(C)CCOP(=O)([O-])OCCCCCCCCCCCC1C2CC3CC(C2)CC1C3 (centres undefined) | > 100 µM

The recorded HC50 for C[N+](C)(C)CCOP(=O)([O-])OCCCCCC1C2CC3CC(C2)CC1C3 (centres undefined) is > 100 µM

The reported value for C[N+]1(CCOP(=O)([O-])OCCCCCCCCCCC=C2C3CC4CC(C3)CC2C4)CCCCC1 in terms of HC50 is > 100 µM

For reference, reported HC50 for CCCCCCCCCCCCCCCC=C1CCC(OCCOP(=O)([O-])OCC[N+]2(C)CCCCC2)CC1 (centres undefined) stands at > 100 µM

So, CCCCCCCCCCCC=C1CCC(OCCOP(=O)([O-])OCC[N+]2(C)CCOCC2)CC1 (centres undefined) ? Its HC50 was > 100 µM

====

# ASSAY_TEXT: Toxicity against red blood cells assessed as hemolytic activity
# Assay type: cell-based, Erythrocyte
# SETUP_CONDITIONS: human
PROPERTY: HC50

Sample answers from the record:
1. C[N+]1(CCOP(=O)([O-])OCCCCCCCCCCC=C2CCCCC2)CCCCC1 | > 100 µM
2. C[N+]1(CCOP(=O)([O-])OCCCCCCCCCCC=C2C3CC4CC(C3)CC2C4)CCOCC1 | > 100 µM
3. C[N+](C)(C)C1CCCCC1OP(=O)([O-])OCCCCCCCCCCC=C1CCCCC1 (centres undefined) | 59.8 µM

Moving on to another molecule below.
// HC50 lookup, molecule = CCCCCCCCCCCCCCCC=C1CCC(OCCOP(=O)([O-])OCC[N+]2(C)CCOCC2)CC1 (centres undefined) , result: > 100 µM

====

# ASSAY_TEXT: Toxicity against red blood cells assessed as hemolytic activity
# Assay type: cell-based, Erythrocyte
# SETUP_CONDITIONS: human
PROPERTY: HC50

For orientation, consider the following solved cases.
1) C[N+](C)(C)CCOP(=O)([O-])OCCCCC=C1C2CC3CC(C2)CC1C3 | > 100 µM
2) CCCCCCCCCCCCCCCC=C1CCC(OCCOP(=O)([O-])OCC[N+](C)(C)C)CC1 (stereo unspecified) | > 100 µM
3) CCCCCCCCCCCCCC=C1CCC(OCCOP(=O)([O-])OCC[N+]2(C)CCCCC2)CC1 (stereo unspecified) | > 100 µM
4) CCCCCCCCCCCCCC=C1CCC(OCCOP(=O)([O-])OCC[N+](C)(C)C)CC1 (stereo unspecified) | > 100 µM
5) C[N+](C)(C)CCOP(=O)([O-])OCCCCCCCCCCC=C1C2CC3CC(C2)CC1C3 | > 100 µM

HC50 for C[N+](C)(C)CCOP(=O)([O-])OCCCCCCCCCCCC1CCCCC1 is > 100 µM
